Study target: T1, FABP3 with N-terminal His6 tag (UniProt P05413 1-133)
T1 construct: synthetic gene (Invitrogen GeneArt) in pET28a between NdeI and XhoI; Apo (delipidized) form; held on the Ni-NTA quartz sensor by the His6 tag; also called His6-FABP3; not shown: His6, N-terminal, kept
T1 sequence (P05413 whole entry): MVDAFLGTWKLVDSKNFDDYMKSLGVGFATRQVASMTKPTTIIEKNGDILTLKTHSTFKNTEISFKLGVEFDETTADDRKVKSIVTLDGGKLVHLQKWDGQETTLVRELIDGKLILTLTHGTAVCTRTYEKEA
Test summary: quartz crystal microbalance (QCM); His6-FABP3 (or FABP3 F16S) immobilised on the gold-plated quartz sensor through Ni-NTA groups; αSyn, its variants or peptides added at varying concentrations; room temperature; 50 mM Tris-HCl pH 7.4; kobs = koff + kon[αSyn], Kd from kon and koff (AQUA 2.0)
Measurement context: both partners purified
Test readout: koff (s⁻¹)

{"Binder": "EEGFQDFEPEA (source: synthetic peptide (SCRUM Inc or BEX Co Ltd)) [αSynP130-140 Y133F/Y136F]", "Test result": 0.0011}
{"Binder": "EEGFQDWEPEA (source: synthetic peptide (SCRUM Inc or BEX Co Ltd)) [αSynP130-140 Y133F/Y136W]", "Test result": 0.0019}

I = EEGWQDWEPEA (source: synthetic peptide (SCRUM Inc or BEX Co Ltd)) [αSynP130-140 Y133W/Y136W]
II = EEGYQDFEPEA (source: synthetic peptide (SCRUM Inc or BEX Co Ltd)) [αSynP130-140 Y136F]
III = EEGYQDWEPEA (source: synthetic peptide (SCRUM Inc or BEX Co Ltd)) [αSynP130-140 Y136W]
Sort (3 binders) by koff: min first. List labels; respect the requested ordering.
I, III, II
